growth: recorded values
test system: MALME-3M melanoma; experiment: NCI-60 one-dose screen, 48 h (100 = growth as untreated, 0 = no growth, -100 = all killed); conditions: 10 µM unless noted
About 83,000 compounds went through this panel and 20% of them were active in at least one assay; those are over-represented in the sample as a whole.
experimentalEndpoint: growth (%)

| compound | measurement |
| --- | --- |
| CC1(C)O[C@H]2OC3CCC(=O)CC3(O)[C@H]2O1 (some centres undefined) | 104 |
| O=C(O)c1cccc(N/C=C/C(=O)c2cc3cc(Br)ccc3oc2=O)c1 | 104 |
| COc1cc(C(=O)C(=O)c2cc(OC)c(O)c(OC)c2)cc(OC)c1O | 103 |
| COc1cccc(NC(=O)c2cccc(C3CCc4c(cc(OC)c(OC)c4OC)O3)c2)c1 (centres undefined) | 72.7 |
| Cc1cccc(N2CCN(C(=S)c3ccc4c(c3)OCO4)CC2)c1 | 21.8 |
| Cc1nc2sc(C(=O)Nc3cccc(Cl)c3)c(N)c2cc1C(O)c1ccccc1 (centres undefined) | 49.7 |
| CC/C(Cc1ccccc1)=C(\c1ccc(OCCN2CCCCCC2)cc1)c1ccc(OC(=O)NCc2ccccc2)cc1 | 61.3 |
| Cc1ccc(/C=C(\C#N)C(=O)Nc2ncc(Cc3cc(Cl)ccc3Cl)s2)o1 | 54.3 |
| CCN(CC)CCCC(C)Nc1ccc2cc(OC)ccc2n1 (centres undefined) | 114 |
| C[C@@H]1CC[C@@]2(OC1)O[C@H]1C[C@H]3[C@@H]4CC=C5C[C@@H](O[C@@H]6O[C@H](CO)[C@@H](O[C@@H]7O[C@@H](CO)[C@H](O)[C@H]7O)[C@H](O)[C@H]6O[C@@H]6O[C@@H](C)[C@H](O)[C@@H](O)[C@H]6O)CC[C@]5(C)[C@H]4CC[C@]3(C)[C@H]1[C@@H]2C | -91.6 |
| CC1(C)OC(=O)C(=Cc2cccc(Br)c2)C(=O)O1 | 108 |
| CCOC(=O)c1c(C)nc2c(c1N)CC(=O)N2Cc1cc(OC)c(OC)c(OC)c1 | 45 |
| C=CCn1c(SCC(=O)Nc2ccc(C(=O)/C=C/c3ccc(OC)cc3)cc2)nnc1-c1ccccc1 | 88.2 |
| CCCCCCCCn1ccc2cc(NC(=O)Cn3cc(CN4CCC(C)CC4)nn3)ccc21 | -70.5 |
| COc1ccc(Cl)cc1Nc1nc(C(F)(F)F)ccc1C(=O)N/N=C/c1ccccc1Cl | 11 |
| Cn1cc(-c2csc(-c3cn(C)c4ccc(Br)cc34)n2)c2cnccc21 | -91.3 |
| O=C1CC2C=CCN2C=C1NC(=O)C1CCCCC1 (centres undefined) | 78 |
| CCOC(=O)c1c(-c2ccc(Cl)cc2)c(C#N)c2c(C#N)c(N)nn2c1N | 72.9 |
| Cn1cc(-c2ccc3cc(-c4ccc(CC(=O)Nc5cc(C(C)(C)C)on5)cc4)cnc3c2)cn1 | -15.8 |

====

system: SR leukemia; test: NCI-60 one-dose screen, 48 h; conditions: 10 µM unless noted
The panel holds about 83,000 compounds, 20% with a hit somewhere; the sample as a whole holds those more often. Activity calls are given as the source filed them. Rule for the calls: active = growth percent below 10; inactive = the rest.
Outcome codes: T = active, F = inactive

| compound | assayedSystem | assignedClass |
| --- | --- | --- |
| C=C1C(=O)O[C@H]2[C@H]1CC/C(COC(=O)NCCCCCCCCNC(=O)OC/C1=C/CC[C@@]3(C)O[C@H]3[C@H]3OC(=O)C(=C)[C@@H]3CC1)=C\CC[C@@]1(C)O[C@@H]21 | SR leukemia | T |
| COc1ccc(C2=C/C(=C\c3ccc(Cl)cc3)C(=O)N2/N=C/c2ccc(Cl)cc2)cc1 | SR leukemia | F |
| CCN(C(=O)N1CCN(c2cc3c(cc2F)c(=O)c(C(=O)O)cn3C2CC2)CC1)c1nc(-c2ccc(C)cc2)cs1 | SR leukemia | F |
| CN1CCN(Cc2ccc(NC(=O)c3cncc(C#Cc4cncc5[nH]ncc45)c3)cc2C(F)(F)F)CC1 | SR leukemia | T |
| O=C(c1ccc(F)c(Cl)c1)N1c2ccccc2Sc2ccccc21 | SR leukemia | F |
| O=C(CCCCCCN1CC(=O)N2[C@@H](c3ccc(Cl)cc3)c3[nH]c4ccccc4c3C[C@H]2C1=O)NO | SR leukemia | F |
| O=c1[nH]c(-c2ccc(Cl)cc2)cn1-c1ccc(-n2cc(-c3ccc(Cl)cc3)[nH]c2=O)cc1 | SR leukemia | F |
| C=C(c1ccc(C(=O)O)cn1)c1cc2c(cc1C)C(C)(C)CCC2(C)C | SR leukemia | F |
| N#C/C(=C\c1ccc(Br)cc1)c1cc2ccccc2[nH]1 | SR leukemia | F |
| COc1cc(C2C3=C(COC3=O)N(CCO)c3cc4c(cc32)OCCO4)cc(OC)c1OC (stereo not drawn) | SR leukemia | T |
| O=C1CC2C=CCN2C=C1NC(=O)C1CCCCC1 (stereo not drawn) | SR leukemia | F |
| O=C(CSc1nc2ccc([N+](=O)[O-])cc2[nH]1)Nc1ccc(Br)cc1 | SR leukemia | F |
| CCOC(=O)c1c(C)nc2c(c1N)CC(=O)N2Cc1cc(OC)c(OC)c(OC)c1 | SR leukemia | F |
| COc1cc(C(=O)c2c(-c3ccccc3)oc3c(OC)cccc23)cc(OC)c1O | SR leukemia | F |
| Clc1ccc(-c2nc(-c3c[nH]c4ncccc34)cs2)cc1 | SR leukemia | F |
| COC(=O)C1=Nc2ccc(F)cc2/C1=C\c1sc(Nc2ccc(O)cc2)nc1O | SR leukemia | F |
| C=CC1(C)C(O[Si](C)(C)C(C)(C)C)CC2C3OC(=O)NC31c1cccc3c1[C@H](C(=O)N3C)C2(C)C (stereo partly drawn) | SR leukemia | F |
| CCOC(=O)c1c(-c2ccccc2)n2c(=O)cc(C)c3c(O)c(O)cc1c32 | SR leukemia | F |
| CC1=NN(c2ccc(Cl)cc2)CC1(C)N=O (stereo not drawn) | SR leukemia | F |
| O=C(Nc1ccccc1O)c1ccccc1Nc1ccnc(C(F)(F)F)c1 | SR leukemia | F |
| CC1(C)OC(=O)C(=Cc2cccc(Br)c2)C(=O)O1 | SR leukemia | F |
| COC(=O)/C=C1/SC(=Nc2cccc(Cl)c2)N(CCc2c[nH]c3ccc(O)cc23)C1=O | SR leukemia | T |
| COc1cc2oc(-c3cccc(NC(=O)c4ccc5c(c4)OCO5)c3)cc(=O)c2c(OC)c1OC | SR leukemia | F |
| CCN(CCO)CC(C)Nc1ccc([N+](=O)[O-])c2sc3ccccc3c(=O)c12 (stereo not drawn) | SR leukemia | F |
| O=C(Nc1ccc(F)cc1)Nc1ccccc1CNc1nc(Nc2ccc(OCCN3CCCC3)cc2)ncc1Cl | SR leukemia | T |
| Cn1ccnc1C(=O)/C=C/c1ccc(C(=O)Nc2ccc(F)cc2)cc1 | SR leukemia | T |
| CCOC(=O)Cn1c(=O)c2c3ccccc3n(C)c2n2nnc(-c3ccccc3)c12 | SR leukemia | T |
| Cc1cc(C)cc(Nc2ccc([N+](=O)[O-])c(NCCN3CCOCC3)n2)c1 | SR leukemia | F |
| Cc1nc2sc(C(=O)Nc3ccccc3)c(N)c2cc1C(=O)/C=C/c1ccccc1 | SR leukemia | F |
| CCCCCCCC/C=C\CCCCCCCCOc1ccccc1CC(=O)NCC[N+]1(C)CCCCC1 | SR leukemia | T |
| C=C(CN1CC=CCC1)[C@@H]1CC[C@]2(CO)CC[C@]3(C)[C@H](CC[C@@H]4[C@@]5(C)CC[C@H](O)C(C)(C)[C@@H]5CC[C@]43C)[C@@H]12 | SR leukemia | F |
| COc1ccc(-c2cn(-c3ccc(Cl)cc3)c(SCC(=O)c3ccc([N+](=O)[O-])cc3)n2)cc1 | SR leukemia | F |
| COc1ccc(Cc2nnc(Nc3nc4ccccc4s3)s2)cc1 | SR leukemia | F |
| CC1=CCC[C@@H]2C1(C)CC[C@H](C)[C@@]2(C)CC1=CC(=O)C(SC(C)(C)C)=CC1=O (stereo partly drawn) | SR leukemia | F |
| CC(=O)N(Cc1ccccc1)c1nc2ccc(O)c(CN(C)C)c2s1 | SR leukemia | F |
| C=CC(=O)N1CCN(c2ccc3cccc(NC(=O)c4cnc(C)cn4)c3n2)CC1 | SR leukemia | T |
| CCCCCCCCCCCCCCCCOC(=O)c1c(C)[nH]c(/C=C2\N=C(c3ccc[nH]3)C=C2OC)c1C | SR leukemia | F |
| Nc1nc(C(=O)N/N=C/c2ccc(N3CCOCC3)cc2)nn1-c1ccc(S(N)(=O)=O)cc1 | SR leukemia | F |
